# Tested on: UACC-62 melanoma
# Experiment summary: NCI-60 one-dose screen, 48 h (100 = growth as untreated, 0 = no growth, -100 = all killed)
# Experimental context: 10 µM
Compounds without any hit were thinned out: in the full panel of roughly 83,000, 20% have a hit.
Hi! Could you tag entries with growth below 50% as 1 (yes), and those at or above as 0 (no)? Much appreciated.

molecule=C[C@H]1[C@@H](CC(=O)N[C@@H](Cc2coc3ccccc23)B(O)O)O[C@@H]2OC3(C)CC[C@H]4[C@H](C)CC[C@@H]1[C@@]24OO3 discrete_label="1 (yes)"
molecule=CC12CCC3(CCC(=O)NCCCNc4ccnc5cc(Cl)ccc45)[C@@](C)(OO[C@]3(C)O1)O2 discrete_label="1 (yes)"
molecule=COP(=O)(CC(F)(F)C(F)(F)F)OC discrete_label="0 (no)"

---

# Tested on: NCI-H23 lung
# Experiment summary: NCI-60 one-dose screen, 48 h (100 = growth as untreated, 0 = no growth, -100 = all killed)
# Experimental context: 10 µM
About 83,000 compounds went through this panel and 20% of them were active in at least one assay; those are over-represented in the sample as a whole.
Entries get a class label from measured growth. See ranges: band 1 = under -40%, band 2 = from -40% up to 40%, band 3 = 40% and over

molecule=COc1ccc(/C=C/C(=O)c2nc3ccccc3n2Cc2ccc(Br)cc2)cc1 discrete_label="band 3"
molecule=CCC[Se]C(=O)c1ccc(C(=O)[Se]CCC)s1 discrete_label="band 1"
molecule=COC(=O)C[C@](O)(CCC(C)C)C(=O)O[C@@H]1C(OC)=C[C@]23CCCN2CCc2cc4c(cc2[C@H]13)OCO4 discrete_label="band 1"
molecule=CCOP(=O)(CC(F)(F)C(F)(F)F)OCC discrete_label="band 3"
molecule=CC[C@]12C=CCN3CC[C@@]4(c5ccc(OC)cc5N(C)[C@H]4[C@@](O)(C(=O)OC)[C@@H]1OC(=O)CCCC[P+](c1ccc(OC)cc1)(c1ccc(OC)cc1)c1ccc(OC)cc1)[C@@H]32 discrete_label="band 1"
molecule=O=C(/C=C/c1ccccc1)c1nc2ccccc2n1Cc1ccc(Br)cc1 discrete_label="band 1"
molecule="CC12OOC(C)(OO1)C2CCC(=O)NCCNc1ccnc2cc(Cl)ccc12 (stereo unspecified)" discrete_label="band 3"
molecule=O=C(/C=C/c1ccco1)c1nc2ccccc2n1Cc1ccc(F)cc1 discrete_label="band 3"
molecule=O=C(/C=C/c1ccc(Br)cc1)c1nc2ccccc2n1Cc1ccc(Br)cc1 discrete_label="band 2"
molecule=O=C(/C=C/c1cccc(Br)c1)c1nc2ccccc2n1Cc1ccc(F)cc1 discrete_label="band 2"
molecule=CC1=C(C=O)C2=C(C)C3(CC3)[C@@](C)(O)C(=O)C2=C1 discrete_label="band 2"
molecule=COc1cc(OC)c(/C=C/C(=O)c2nc3ccccc3n2Cc2ccc(F)cc2)c(OC)c1 discrete_label="band 3"
molecule=O=C(/C=C/c1ccc(F)cc1)c1nc2ccccc2n1Cc1ccc(Br)cc1 discrete_label="band 1"
molecule=COC(=O)CCn1c(-c2ccc(-n3cc(-c4ccc(O[C@H]5O[C@@H]6OC7(C)CC[C@H]8[C@H](C)CC[C@@H]([C@H]5C)[C@@]68OO7)cc4)nn3)cc2)nc2ccccc21 discrete_label="band 2"
molecule=COC(=O)C[C@](O)(CCCC(C)C)C(=O)O[C@H]1C(OC)=C[C@@]23CCCN2CCc2cc4c(cc2[C@@H]13)OCO4 discrete_label="band 2"
molecule=O=C(NC([Se])=NC1CCCCC1)c1ccccc1 discrete_label="band 2"
molecule=COc1cc2cc(C(=O)N3C[C@@H](CCl)c4c3cc(OC(=O)N3CCN(C)[C@@H]5CSSC[C@H]53)c3ccccc43)[nH]c2c(OC)c1OC discrete_label="band 1"
molecule=N#C[Se]CC(=O)Nc1cccc(C(F)(F)F)c1 discrete_label="band 1"
molecule=C[C@H]1[C@H](OC(=O)CCC(=O)N(CCCc2cn(-c3ccc([N+](=O)[O-])cc3)nn2)CCNc2ccnc3cc(Cl)ccc23)O[C@@H]2OC3(C)CC[C@H]4[C@H](C)CC[C@@H]1[C@@]24OO3 discrete_label="band 3"
molecule=O=C(/C=C/c1ccc(Cl)cc1)c1nc2ccccc2n1Cc1ccc(Br)cc1 discrete_label="band 3"
molecule=C[C@H]1[C@@H](Oc2ccc(-c3cn(-c4ccnc5cc(Cl)ccc45)nn3)cc2)O[C@@H]2OC3(C)CC[C@H]4[C@H](C)CC[C@@H]1[C@@]24OO3 discrete_label="band 2"
molecule=CC[C@]12C=CCN3CC[C@@]4(c5ccc(OC)cc5N(C)[C@H]4[C@@](O)(C(=O)OC)[C@@H]1OC(=O)CCC[P+](C1CCCCC1)(C1CCCCC1)C1CCCCC1)[C@@H]32 discrete_label="band 2"
molecule="CCOC(=O)C1=C(Nc2ccccc2)C(=O)OC12C(=O)Nc1ccccc12 (stereo unspecified)" discrete_label="band 3"
molecule="CC12OOC(C)(OO1)C2CCC(=O)NCCCNc1ccnc2cc(Cl)ccc12 (stereo unspecified)" discrete_label="band 3"
molecule=C[C@H]1[C@H](OC(=O)CCC(=O)N(CCCc2cn(-c3ccc(CN4CCOCC4)cc3)nn2)CCNc2ccnc3cc(Cl)ccc23)O[C@@H]2OC3(C)CC[C@H]4[C@H](C)CC[C@@H]1[C@@]24OO3 discrete_label="band 3"
molecule=COc1cc2cc(C(=O)N3C[C@@H](CCl)c4c3cc(OC(=O)N3CCN(C(=O)CCC(=O)N5CCN(C)CC5)[C@@H]5CSSC[C@@H]53)c3ccccc43)[nH]c2c(OC)c1OC discrete_label="band 1"
molecule=CC[C@]12C=CCN3CC[C@@]4(c5ccc(OC)cc5N(C)[C@H]4[C@@](O)(C(=O)OC)[C@@H]1OC(=O)CCC[P+](c1ccc(C)cc1)(c1ccc(C)cc1)c1ccc(C)cc1)[C@@H]32 discrete_label="band 1"
molecule=CC(=O)Oc1ccccc1C(=O)NC([Se])=NC1CCCCC1 discrete_label="band 2"
molecule=O=C(/C=C/c1ccco1)c1nc2ccccc2n1Cc1ccc(Br)cc1 discrete_label="band 2"
molecule=C[C@H]1[C@@H](CC(=O)N[C@@H](Cc2coc3ccccc23)B(O)O)O[C@@H]2OC3(C)CC[C@H]4[C@H](C)CC[C@@H]1[C@@]24OO3 discrete_label="band 1"

---

# Test system: HL-60(TB) leukemia
# Experiment summary: NCI-60 one-dose screen, 48 h (100 = growth as untreated, 0 = no growth, -100 = all killed)
# Experimental context: 10 µM unless noted
# Description: Growth inhibition of the HL-60(TB) human tumor cell line is measured as a screen for anti-cancer activity. Cells are grown in 96 well plates and exposed to the test compound for 48 hours. Compounds are tested at a single concentration, which is 10^-5 M for most compounds. The reported endpoint is percent growth (GI% or GIPRCNT), where numbers from 0 - 100% represent growth inhibition, and numbers from -100% - 0 represent cell death. For example, a value of 40 represents 60% growth inhibition. […]
Compounds without any hit were thinned out: in the full panel of roughly 83,000, 20% have a hit.
Note to self: use fulfilled only for growth readings below 20%; a reading exactly at 20% still gets not fulfilled.

compound=CC(C)C1=C[C@@]23CC[C@@H]4[C@](C)(CCC[C@]4(C)C(=O)NCc4ccccc4)[C@H]2C[C@@H]1[C@H]1C(=O)OC(=O)[C@H]13 discrete_label=fulfilled
compound=COc1ccc(-c2nc(Nc3ccccc3S(N)(=O)=O)c3ccccc3n2)cc1 discrete_label="not fulfilled"
compound=COc1cccc(-c2c(C#N)c(-c3ccc(Cl)cc3)nc3n[nH]c(-c4ccc(Cl)cc4)c23)c1 discrete_label=fulfilled
compound=C#CCCCNCCNc1ccnc2cc(Cl)ccc12 discrete_label="not fulfilled"
compound="CC1=C(C(=O)OCc2ccccc2)C(c2ccc(-n3cncn3)cc2)n2c(nc3ccccc32)N1 (stereo not drawn)" discrete_label=fulfilled
compound=Cc1nn(-c2ccccc2)c2nc(C)n(CC(=O)N/N=C/c3cccc([N+](=O)[O-])c3)c(=O)c12 discrete_label="not fulfilled"
compound="COc1c(F)ccc(C(=O)Nc2ccc3nc(NC(=O)C4CCCN(S(=O)(=O)c5ccc(C(F)(F)F)cc5)C4)sc3c2)c1F (stereo not drawn)" discrete_label="not fulfilled"
compound=O=C1Nc2cc(-c3ccc(NC(=O)c4cccs4)cc3)ccc2/C1=C/c1ccc[nH]1 discrete_label="not fulfilled"
compound=CN1CCc2c(sc3ncnc(N/N=C/c4cn(-c5ccccc5)nc4-c4ccc(Br)cc4)c23)C1 discrete_label=fulfilled
compound=COc1ccc(C=CC(=O)c2ccc(-n3c(C)nc4c(cnn4-c4ccccc4)c3=O)cc2)cc1 discrete_label="not fulfilled"
compound="CCOC(=O)C1=C(N)N(c2ccccc2)C2=C(C(=O)CC(C)(C)C2)C1c1ccc(Cl)cc1Cl (stereo not drawn)" discrete_label=fulfilled
compound="CCN(C(=O)CN1C(=O)/C(=C/c2ccco2)SC1=S)C1CCS(=O)(=O)C1 (stereo not drawn)" discrete_label="not fulfilled"
compound=O=C(Cn1c(-c2ccccc2)nc2ccccc21)N=Nc1c(O)[nH]c2ccc(Cl)cc12 discrete_label="not fulfilled"
compound=COc1ccc(OC)c(Cn2cc(C#N)c(N)c2C(=O)c2ccc(Br)cc2)c1 discrete_label="not fulfilled"
compound=O=C(NC([Se])=NC1CCCCC1)c1ccccc1 discrete_label=fulfilled
compound="CC1=C(C(=O)OCc2ccccc2)C(c2c(O)cc(O)cc2O)n2c(nc3ccccc32)N1 (stereo not drawn)" discrete_label="not fulfilled"
compound=COCCOCCOCCOc1ccc(-n2cc(CCCN(CCNc3ccnc4cc(Cl)ccc34)C(=O)CCC(=O)O[C@@H]3O[C@@H]4OC5(C)CC[C@H]6[C@H](C)CC[C@@H]([C@H]3C)[C@@]46OO5)nn2)cc1 discrete_label=fulfilled
compound=O=C(N/N=C/c1c[nH]c2ccccc12)Nc1ccc(F)c(Cl)c1 discrete_label=fulfilled
